Values from ChEMBL document CHEMBL1125713

- System: Canis familiaris
- Method Notes: Antiarrhythmic effect in coronary artery ligated dogs model at a dose of 5 mg/kg, administered intravenously and value noted at 20 min
- Type: functional, Canis lupus familiaris, Heart
- Condition Info: route intravenous
Please enter T where Normal beats is greater than or equal to 50%, and F where it is lower.

Q: # check: Normal beats of CC1CCCC(C)N1CCCC(C(N)=O)(c1ccccc1)c1ccccn1 (stereo not drawn) is greater than or equal to 50%
A: T

Q: Reported Normal beats at or above 50%? CC1CCCC(C)N1CCCC(C(N)=O)(c1ccccc1)c1ccccc1.Cl (stereo not drawn)
A: T

Q: Reported Normal beats reaches at least 50% for CC1CCCC(C)N1CCC(CN)(c1ccccc1)c1ccccc1 (stereo not drawn) ?
A: T

Q: Is Normal beats at least 50%? Consider Cc1ccccc1C(O)(CCCN1C(C)CCCC1C)c1ccccc1.Cl (stereo not drawn)
A: T

Q: Hi, just wondering whether CC1CCCC(C)N1CC(O)(c1ccccc1)c1ccccc1 (stereo not drawn) shows Normal beats of 50% or higher.
A: F

Q: Is Normal beats for CC1CCCC(C)N1CCCC(O)(c1ccccc1)c1ccncc1 (stereo not drawn) at or above 50%?
A: F
